Cited source for all entries: paper PMC10305287

Field: pIC50. Provide a value for each of the molecules that follow.
Tested on: NO production in LPS-stimulated RAW 264.7 cells
Assay: Inhibition of NO production in LPS-stimulated RAW 264.7 cells
Type: cell-based, murine
Conditions: Mus musculus, RAW264.7; LPS-activated RAW 264.7 cells; mean ± SD, n = 3
One number for each entry, as −log10 of the molar value.

| structure as smiles | pIC50 |
| --- | --- |
| CC(=O)N1C(=O)C(=Cc2cccc(C(F)(F)F)c2)c2ccccc21 | 4.79 |

Hello, I would appreciate it if you could give pIC50 for each entry below.
1. CC(=O)N1C(=O)C(=Cc2cccc(C(F)(F)F)c2)c2cc(N)ccc21
2. CC(=O)N1C(=O)/C(=C\c2cccc(C(F)(F)F)c2)c2ccc(C(F)(F)F)cc21
3. CC(=O)N1C(=O)C(=Cc2ccc(C(F)(F)F)cc2)c2ccc(Cl)cc21
4. O=C1Nc2ccc(NS(=O)(=O)c3ccc([N+](=O)[O-])cc3)cc2C1=Cc1cccc(C(F)(F)F)c1

Reply |
1. 4.87
2. 4.75
3. 4.69
4. 5.00

* * *

Biological target: human recombinant COX-2 enzyme (Homo sapiens)
Sequence (P35354 18-604): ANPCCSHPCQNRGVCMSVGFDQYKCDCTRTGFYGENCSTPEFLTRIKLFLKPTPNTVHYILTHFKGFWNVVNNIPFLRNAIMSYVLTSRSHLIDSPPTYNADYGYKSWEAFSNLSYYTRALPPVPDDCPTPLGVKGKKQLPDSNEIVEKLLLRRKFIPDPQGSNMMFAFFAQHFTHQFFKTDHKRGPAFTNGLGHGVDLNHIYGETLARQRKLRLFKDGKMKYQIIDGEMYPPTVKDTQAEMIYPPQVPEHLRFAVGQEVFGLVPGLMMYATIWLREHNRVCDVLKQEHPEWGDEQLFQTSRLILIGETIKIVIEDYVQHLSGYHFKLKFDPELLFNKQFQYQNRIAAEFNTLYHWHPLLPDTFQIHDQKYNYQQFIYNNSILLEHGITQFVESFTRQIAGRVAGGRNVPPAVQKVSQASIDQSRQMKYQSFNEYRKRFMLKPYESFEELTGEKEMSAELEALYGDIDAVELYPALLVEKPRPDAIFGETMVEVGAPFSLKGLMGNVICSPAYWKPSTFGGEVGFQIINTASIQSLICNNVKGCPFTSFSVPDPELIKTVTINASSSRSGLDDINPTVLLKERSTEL
Test: In vitro COX-2 inhibitory assay (Cyclooxygenase-2 Inhibitor Screening Kit)
Conditions: human recombinant COX-2, fluorescence kit; mean ± SD, n = 3
So I've got a bunch of compounds here, and I need their IC50 values.
One number for each entry, in µM.

| compound | experimental system | IC50, µM |
| --- | --- | --- |
| CC(=O)N1C(=O)C(=Cc2cccc(C(F)(F)F)c2)c2cc(N)ccc21 [Compound 4e] | human recombinant COX-2 enzyme (Homo sapiens) | 3.34 |

Hi team, please reply with IC50 for each item in this list.
1. CC(=O)N1C(=O)/C(=C\c2cccc(C(F)(F)F)c2)c2ccc(C(F)(F)F)cc21 [Compound 4a]
2. O=C1Cc2cc(/N=C/c3cccc(C(F)(F)F)c3)ccc2N1 [Compound 9h]

Reply |
[19.9, 2.35]

Ask | Which IC50 is reported for this compound? O=C1Cc2cc(N=Cc3cc(C(F)(F)F)cc(C(F)(F)F)c3)ccc2N1 [Compound 9i]
Reply | 2.42

* * *

Provide the reported melting point of each item.

Example compounds with recorded melting point:
| compound | melting point |
| --- | --- |
| CC(=O)N1C(=O)C(=Cc2cccc(C(F)(F)F)c2)c2ccccc21 [Compound 4j] | 121.5 to 123.3 °C |
| Cc1ccc(S(=O)(=O)Nc2ccc3c(c2)C(=Cc2cccc(C(F)(F)F)c2)C(=O)N3)cc1 [Compound 9f] | 191.1 to 191.5 °C |
| CC(=O)N1C(=O)C(=Cc2ccc(C(F)(F)F)cc2)c2ccc(Cl)cc21 [Compound 4i] | 142.9 to 144.1 °C |

Consider the following items and state reported melting point for each.
1. O=C1Cc2cc(N=Cc3cc(C(F)(F)F)cc(C(F)(F)F)c3)ccc2N1 [Compound 9i]
2. O=C1Cc2cc(/N=C/c3cccc(C(F)(F)F)c3)ccc2N1 [Compound 9h]
3. COc1cccc(C=C2C(=O)N(C(C)=O)c3cc(Cl)ccc32)c1 [Compound 4s]
4. CC(=O)N1C(=O)/C(=C\c2cccc(C(F)(F)F)c2)c2ccc(C(F)(F)F)cc21 [Compound 4a]
5. CC(=O)N1C(=O)/C(=C/c2cccc(C(F)(F)F)c2)c2ccc(C(F)(F)F)cc21 [Compound 4b]
6. CC(=O)N1C(=O)C(=Cc2cccc(C(F)(F)F)c2)c2cc(N)ccc21 [Compound 4e]

Reply |
1. 191.1 to 191.5 °C
2. 166.3 to 166.8 °C
3. 141.3 to 143.2 °C
4. 131.2 to 132.1 °C
5. 91.3 to 92.8 °C
6. 165.9 to 166.2 °C

Record melting point per entry; entries follow.
1. CC(=O)N1C(=O)C(=Cc2ccccc2C(F)(F)F)c2ccc(Cl)cc21 [Compound 4k]
2. O=C1Nc2ccc(NS(=O)(=O)c3ccc([N+](=O)[O-])cc3)cc2C1=Cc1cccc(C(F)(F)F)c1 [Compound 9d]

Reply |
1: 131 to 133.6 °C; 2: 226.5 to 226.9 °C

* * *

Tested on: RAW 264.7 cells
Experiment: Cytotoxicity assay (CCK-8) on RAW 264.7 cells
Assay type: cell-based, mouse
Conditions: CCK-8, concentration not stated
test readout: Cytotoxicity (in words)

| structure as smiles | test readout | result |
| --- | --- | --- |
| CC(=O)N1C(=O)C(=Cc2cccc(C(F)(F)F)c2)c2cc(N)ccc21 | Cytotoxicity (in words) | weak cytotoxicity |
| CC(=O)N1C(=O)C(=Cc2cccc(C(F)(F)F)c2)c2ccccc21 | Cytotoxicity (in words) | weak cytotoxicity |
| O=C1Cc2cc(/N=C/c3cccc(C(F)(F)F)c3)ccc2N1 | Cytotoxicity (in words) | no cytotoxicity |
| CC(=O)N1C(=O)/C(=C\c2cccc(C(F)(F)F)c2)c2ccc(C(F)(F)F)cc21 | Cytotoxicity (in words) | weak cytotoxicity |
| CC(=O)N1C(=O)C(=Cc2ccc(C(F)(F)F)cc2)c2ccc(Cl)cc21 | Cytotoxicity (in words) | weak cytotoxicity |

For every item in the list below, what is its measured Cytotoxicity (in words)?
1. O=C1Cc2cc(N=Cc3cc(C(F)(F)F)cc(C(F)(F)F)c3)ccc2N1
2. O=C1Nc2ccc(NS(=O)(=O)c3ccc([N+](=O)[O-])cc3)cc2C1=Cc1cccc(C(F)(F)F)c1

Reply |
["no cytotoxicity", "weak cytotoxicity"]
